Test: MTT cytotoxicity assay in Vero E6 cells
Assay type: cell-based
Conditions: African green monkey
measurement_name: CC50 at 96 h

So, CCOC(=O)[C@H](Cc1ccccc1)NC(=O)[C@H]1O[C@@H](O[C@H]2[C@H](OC3CC[C@@]4(C)C(CC[C@]5(C)C4C(=O)C=C4C6C[C@@](C)(C(=O)O)CC[C@]6(C)CC[C@]45C)C3(C)C)O[C@H](C(=O)N[C@@H](Cc3ccccc3)C(=O)OCC)[C@@H](O)[C@@H]2O)[C@H](O)[C@@H](O)[C@@H]1O (stereo partly shown) [Compound 11] ? Its CC50 at 96 h was > 100 µM

Noted for COC(=O)[C@H](NC(=O)[C@H]1O[C@@H](O[C@H]2[C@H](OC3CC[C@@]4(C)C(CC[C@]5(C)C4C(=O)C=C4C6C[C@@](C)(C(=O)O)CC[C@]6(C)CC[C@]45C)C3(C)C)O[C@H](C(=O)N[C@@H](C(=O)OC)C(C)C)[C@@H](O)[C@@H]2O)[C@H](O)[C@@H](O)[C@@H]1O)C(C)C (stereo partly shown) [Compound 3] : its CC50 at 96 h reads > 100 µM

Entry under test: COC(=O)[C@H](Cc1ccc(O)cc1)NC(=O)[C@H]1O[C@@H](O[C@H]2[C@H](OC3CC[C@@]4(C)C(CC[C@]5(C)C4C(=O)C=C4C6C[C@@](C)(C(=O)O)CC[C@]6(C)CC[C@]45C)C3(C)C)O[C@H](C(=O)N[C@@H](Cc3ccc(O)cc3)C(=O)OC)[C@@H](O)[C@@H]2O)[C@H](O)[C@@H](O)[C@@H]1O (stereo partly shown) [Compound 6] . Its CC50 at 96 h was > 100 µM

Data point: CC1(C)[C@@H](O[C@H]2O[C@H](C(=O)O)[C@@H](O)[C@H](O)[C@H]2O[C@@H]2O[C@H](C(=O)O)[C@@H](O)[C@H](O)[C@H]2O)CC[C@]2(C)[C@H]3C(=O)C=C4[C@@H]5C[C@@](C)(C(=O)O)CC[C@]5(C)CC[C@@]4(C)[C@]3(C)CC[C@@H]12 [Compound 1, Glycyrrhizic acid] ; CC50 at 96 h = > 100 µM
